test: qHTS assay to test for compound auto fluorescence at 460 nm (blue) in HepG2 cell free culture (AID 720685); further: on the % scale 0 is the no-effect control and ±100 the full control effect
reported_conditions: Cell-free culture medium, blue autofluorescence 405/460 nm; series mostly up to 91.3 µM
The source made the active and inactive calls. The call rests on the fitted dose curve; in most records, active means well fitted curve in the direction sought with a large enough effect in the repeat runs; inconclusive means weak or mixed curves; inactive means flat fitted curve, though single readings scatter.
attribute_measured: fluorescence, % of fluorescent control

- compound: "CC(CN=Cc1ccccc1O)N=Cc1ccccc1O (configuration not stated)"
  fluorescence, % of fluorescent control: "inactive"
- compound: "Nc1ccccc1Nc1ccccc1"
  fluorescence, % of fluorescent control: "inactive"
- compound: "Cc1c(Cl)cccc1[N+](=O)[O-]"
  fluorescence, % of fluorescent control: "inactive"
- compound: "COc1ccc(C(=O)c2ccc(C)cc2)c(O)c1"
  fluorescence, % of fluorescent control: "inactive"
- compound: "S=c1[nH][nH]c(=S)s1"
  fluorescence, % of fluorescent control: "inactive"
- compound: "CCN(CCCCOC(=O)c1ccc(OC)c(OC)c1)C(C)Cc1ccc(OC)cc1 (configuration not stated)"
  fluorescence, % of fluorescent control: "0.0055% [at 18.6 µM] (inactive)"

Attention now turns to another entry.
Please fill in: fluorescence, % of fluorescent control reported for Cc1ccccc1CCO = inactive

###

test: qHTS assay to identify small molecule agonists of the NFkB signaling pathway (AID 1159509); further: on the % scale 0 is the no-effect control and ±100 the full control effect
reported_conditions: NFkB-bla ME-180 cells, beta-lactamase FRET ratio, 5 h; series mostly up to 61 µM
Records with an inconclusive call do not appear. Calls of active or inactive are those of the source. Calls follow the shape of the dose curve; as a rule, active = well fitted curve in the direction sought with a large enough effect in the signal ratio in the repeat runs (not every such curve was filed as active); inconclusive = weak or mixed curves, or a change in a side signal; inactive = no such curve, though single readings can be large or run the other way; the % refers to the signal ratio.
attribute_measured: activation

A selection of reference data follows.
- compound: "COc1ccnc2c1CCCCC2S(=O)c1nc2ccccc2[nH]1 (centres undefined)"
  activation: "inactive"
- compound: "CC(C)Cc1nccs1"
  activation: "inactive"
- compound: "CC(=O)Nc1ccn(C2COC(COC(=O)c3ccccc3)O2)c(=O)n1 (centres undefined)"
  activation: "inactive"
- compound: "Cc1cc(C)c(C)c(O)c1"
  activation: "inactive"
- compound: "Nc1ccc(F)cc1F"
  activation: "inactive"

Please fill in: activation reported for COc1ccc(CN(CCN(C)C)c2ncccn2)cc1 = inactive

Please fill in: activation reported for CC1(C)CC(=O)CC(C)(C)N1 = inactive

Please fill in: activation reported for CO[C@@H]1COCC[C@@H]1N[C@@H]1CC[C@@](C(=O)N2CCc3ncc(C(F)(F)F)cc3C2)(C(C)C)C1 = inactive

###

test: qHTS assay for small molecule disruptors of the mitochondrial membrane potential - cell viability (AID 720634); further: nearly all actives have a fitted effect of over 20% in size
reported_conditions: HepG2 viability, ATP luminescence (CellTiter-Glo), 1 h; series mostly up to 83.2 µM
Inconclusive results are not listed. Calls of active or inactive are those of the source. The call rests on the fitted dose curve.
// classify into class 1 = active, class 0 = inactive

Test call for this compound, please: CCOc1ccccc1O
class 0

Test call for this compound, please: Cc1cc(SC2=C(O)C[C@@](CCc3ccc(N)cc3)(C(C)C)OC2=O)c(C(C)(C)C)cc1CO
class 0

Test call for this compound, please: C(/C=C/C=C/Nc1ccccc1)=Nc1ccccc1
class 0

Test call for this compound, please: O=Cc1ccc([N+](=O)[O-])cc1
class 0

Test call for this compound, please: CCOc1cc(OCC)c(C(C)=O)cc1OCC
class 0

Test call for this compound, please: COc1ccc(CN(CCN(C)C)c2ncccn2)cc1
class 0

Test call for this compound, please: CC1=C(C)C(=O)C(CCCCC#CCCCC#CCO)=C(C)C1=O
class 0

Test call for this compound, please: CC(C)Oc1ccccc1O
class 0

Test call for this compound, please: CC(C)(Cc1c[nH]c2ccccc12)NCC(O)COc1ccccc1C#N (centres undefined)
class 0

Test call for this compound, please: O=[N+]([O-])c1ccc(Cl)cc1Cl
class 0

Test call for this compound, please: O=C1OC(=O)C2CC=CCC12 (centres undefined)
class 0

Test call for this compound, please: N#Cc1ccc(CC(=O)c2cccc(C(F)(F)F)c2)cc1
class 1

Test call for this compound, please: O=C(O)c1cccc(C(=O)O)c1C(=O)O
class 0

Test call for this compound, please: O=C(O)c1ccc(O)c(O)c1
class 0
